assay: Apparent permeability across RRCK cells; assay type: ADME, cell-based, Canis lupus familiaris, MDCKII-LE; conditions: dog, MDCK
Reported Papp values for a set of molecules
Write the value in ×10⁻⁶ cm/s as a bare number.

| MOLECULE | Papp [×10⁻⁶ cm/s] |
| --- | --- |
| COc1ccc(-c2cc(=O)[nH]c(=S)n2CC(=O)NCCN)c(OC)c1 | 1.5 |
| COc1ccc(-c2cc(=O)[nH]c(=S)n2CCN)c(OC)c1 | 3.5 |
| COc1ccc(-c2cc(=O)[nH]c(=S)n2CCO)c(OC)c1 | 13 |
| COc1ccc(OC)c(-c2cc(=O)[nH]c(=S)n2CC(N)=O)c1 | 1.1 |
| COc1ccc(Cl)cc1-c1cc(=O)[nH]c(=S)n1CC(N)=O [PF-06282999] | 1.6 |

Would you mind telling me what Papp value was observed for COc1ccc(-c2cc(=O)[nH]c(=S)n2CC(N)=O)c(OC)c1 ?
0.8

Would you mind telling me what Papp value was observed for COc1ccc(-c2cc(=O)[nH]c(=S)n2CCOC(C)C)c(OC)c1 ?
26

* * *

target: Myeloperoxidase (Homo sapiens, UniProt P05164); experiment: Inhibition of peroxidase activity of MPO isolated from human polynuclear leukocytes using Amplex Red as substrate assessed as formation of resorufin measured every 20 secs by spectrophotometric analysis
Sequence (P05164 165-273 limits assumed): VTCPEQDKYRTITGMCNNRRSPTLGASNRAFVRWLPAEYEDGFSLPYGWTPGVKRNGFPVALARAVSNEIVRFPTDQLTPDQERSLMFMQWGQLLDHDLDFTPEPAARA
Sequence (P05164 279-745 limits assumed): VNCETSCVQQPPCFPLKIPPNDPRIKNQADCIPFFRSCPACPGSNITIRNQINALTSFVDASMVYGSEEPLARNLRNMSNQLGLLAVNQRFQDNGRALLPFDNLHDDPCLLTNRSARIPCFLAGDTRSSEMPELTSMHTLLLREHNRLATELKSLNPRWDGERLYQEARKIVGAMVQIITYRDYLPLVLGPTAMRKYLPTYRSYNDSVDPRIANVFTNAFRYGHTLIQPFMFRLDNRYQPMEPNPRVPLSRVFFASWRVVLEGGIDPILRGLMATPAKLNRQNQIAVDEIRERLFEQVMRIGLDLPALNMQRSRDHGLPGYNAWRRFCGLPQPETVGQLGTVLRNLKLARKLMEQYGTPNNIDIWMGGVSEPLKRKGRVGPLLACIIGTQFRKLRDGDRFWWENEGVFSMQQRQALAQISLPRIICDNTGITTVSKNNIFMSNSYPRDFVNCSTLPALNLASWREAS
OBSERVED PROPERTY: Ki (nM)
Write the value in nM as a bare number.

Use these answered entries as a reference point.
| SMI | Ki (nM) |
| --- | --- |
| COc1ccc(OC)c(-c2cc(=O)[nH]c(=S)n2CC(N)=O)c1 | 347 |
| COc1ccc(-c2cc(=O)[nH]c(=S)n2CCOC(C)C)c(OC)c1 | 501 |
| COc1ccc(-c2cc(=O)[nH]c(=S)n2CC(N)=O)c(OC)c1 | 372 |
| COc1ccc(-c2cc(=O)[nH]c(=S)n2CCO)c(OC)c1 | 151 |

Turning now to a further compound:
Request: Ki, test system Myeloperoxidase (Homo sapiens, UniProt P05164), entry COc1ccc(-c2cc(=O)[nH]c(=S)n2CCN)c(OC)c1
174

* * *

test: Fraction unbound in dog plasma at 2 uM by equilibrium dialysis method; format: ADME, cell-free, Canis lupus familiaris
OBSERVED PROPERTY: fraction unbound at 2 µM
Simply state the number, no unit and no words.

Would you mind telling me what fraction unbound at 2 µM value was observed for COc1ccc(Cl)cc1-c1cc(=O)[nH]c(=S)n1CC(N)=O ?
0.46

* * *

target: Cytochrome P450 2C19 (Homo sapiens); test: Reversible inhibition of CYP2C19 (S)-Mephenytoin 4'-hydroxylase activity in human liver microsomes by LC-MS/MS analysis; type: ADME
Sequence (P33261 whole entry): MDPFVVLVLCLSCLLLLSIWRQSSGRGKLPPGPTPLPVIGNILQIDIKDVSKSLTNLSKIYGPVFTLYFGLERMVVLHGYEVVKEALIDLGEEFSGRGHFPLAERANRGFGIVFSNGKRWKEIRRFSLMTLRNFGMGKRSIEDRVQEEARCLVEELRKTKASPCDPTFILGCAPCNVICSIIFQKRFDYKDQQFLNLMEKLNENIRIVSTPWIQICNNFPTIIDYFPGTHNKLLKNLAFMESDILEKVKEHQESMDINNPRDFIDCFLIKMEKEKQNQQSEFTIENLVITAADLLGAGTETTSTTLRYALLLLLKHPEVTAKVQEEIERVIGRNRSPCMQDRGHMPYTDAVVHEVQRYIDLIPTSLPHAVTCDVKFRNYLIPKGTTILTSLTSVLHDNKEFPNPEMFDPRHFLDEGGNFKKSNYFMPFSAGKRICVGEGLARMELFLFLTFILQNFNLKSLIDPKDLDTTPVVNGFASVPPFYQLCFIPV
pIC50: −log10 of the molar value.
OBSERVED PROPERTY: pIC50

Request: pIC50, test system Cytochrome P450 2C19 (Homo sapiens), entry COc1ccc(Cl)cc1-c1cc(=O)[nH]c(=S)n1CC(N)=O [PF-06282999]
< 4.00

* * *

target: Cytochrome P450 3A4 (Homo sapiens, UniProt P08684); assay: Time-dependent inhibition of CYP3A4 in human liver microsomes; format: ADME
Sequence (P08684 whole entry): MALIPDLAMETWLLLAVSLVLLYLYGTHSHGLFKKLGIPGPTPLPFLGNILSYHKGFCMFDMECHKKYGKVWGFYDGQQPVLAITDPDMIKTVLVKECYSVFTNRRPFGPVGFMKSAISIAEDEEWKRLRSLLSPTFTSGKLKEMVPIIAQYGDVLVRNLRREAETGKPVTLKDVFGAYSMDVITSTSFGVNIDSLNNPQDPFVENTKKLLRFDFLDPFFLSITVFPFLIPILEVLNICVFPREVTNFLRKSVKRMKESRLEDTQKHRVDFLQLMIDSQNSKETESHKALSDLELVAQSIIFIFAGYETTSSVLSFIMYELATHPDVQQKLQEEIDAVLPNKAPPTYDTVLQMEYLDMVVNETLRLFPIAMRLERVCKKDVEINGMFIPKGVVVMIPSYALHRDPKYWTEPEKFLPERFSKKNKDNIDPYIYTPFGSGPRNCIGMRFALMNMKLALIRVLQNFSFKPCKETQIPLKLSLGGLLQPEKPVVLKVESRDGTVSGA
pIC50: −log10 of the molar value.
OBSERVED PROPERTY: pIC50

Would you mind telling me what pIC50 value was observed for COc1ccc(Cl)cc1-c1cc(=O)[nH]c(=S)n1CC(N)=O [PF-06282999] ?
< 4.00

* * *

test: Oral bioavailability in Wistar rat at 3 or 5 mg/kg; type: ADME, organism-based; settings: in vivo
OBSERVED PROPERTY: bioavailability (%)
Write the value in % as a bare number.

Use these answered entries as a reference point.
| SMI | bioavailability / % |
| --- | --- |
| COc1ccc(Cl)cc1-c1cc(=O)[nH]c(=S)n1CC(N)=O | 86 |
| COc1ccc(-c2cc(=O)[nH]c(=S)n2CC(=O)NCCN)c(OC)c1 | 3 |
| COc1ccc(OC)c(-c2cc(=O)[nH]c(=S)n2CC(N)=O)c1 | 61 |
| COc1ccc(-c2cc(=O)[nH]c(=S)n2CC(N)=O)c(OC)c1 | 76 |
| COc1ccc(-c2cc(=O)[nH]c(=S)n2CCO)c(OC)c1 | 8 |

Would you mind telling me what bioavailability value was observed for COc1ccc(-c2cc(=O)[nH]c(=S)n2CCN)c(OC)c1 ?
91

* * *

target: Cytochrome P450 2B6 (Homo sapiens); test: Time-dependent inhibition of CYP2B6 in human liver microsomes; format: ADME
Sequence (P20813 whole entry): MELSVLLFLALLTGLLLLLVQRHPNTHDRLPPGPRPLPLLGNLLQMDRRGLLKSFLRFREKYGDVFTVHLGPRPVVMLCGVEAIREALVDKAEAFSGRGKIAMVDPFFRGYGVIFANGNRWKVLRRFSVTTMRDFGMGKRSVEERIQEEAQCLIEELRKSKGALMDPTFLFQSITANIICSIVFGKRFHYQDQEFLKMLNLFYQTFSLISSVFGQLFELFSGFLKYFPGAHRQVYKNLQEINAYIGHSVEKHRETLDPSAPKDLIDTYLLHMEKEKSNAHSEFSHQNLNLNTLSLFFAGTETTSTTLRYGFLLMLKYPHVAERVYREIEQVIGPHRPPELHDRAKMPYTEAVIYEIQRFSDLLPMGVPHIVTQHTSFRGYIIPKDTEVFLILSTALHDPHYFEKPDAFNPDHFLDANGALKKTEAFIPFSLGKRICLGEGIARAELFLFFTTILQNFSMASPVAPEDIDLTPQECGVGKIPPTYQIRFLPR
OBSERVED PROPERTY: IC50

Would you mind telling me what IC50 value was observed for COc1ccc(Cl)cc1-c1cc(=O)[nH]c(=S)n1CC(N)=O ?
> 100 µM

* * *

assay: Elimination half life in CD-1 mouse at 1 mg/kg, iv and 3 or 5 mg/kg, po; assay type: ADME, organism-based; conditions: in vivo
OBSERVED PROPERTY: half-life (h)
Write the value in h as a bare number.

Would you mind telling me what half-life value was observed for COc1ccc(Cl)cc1-c1cc(=O)[nH]c(=S)n1CC(N)=O ?
1.36

* * *

molecular target: Cytochrome P450 3A4 (Homo sapiens); test: Reversible inhibition of CYP3A4 in human liver microsomes by LC-MS/MS analysis; assay type: ADME
OBSERVED PROPERTY: IC50

Would you mind telling me what IC50 value was observed for COc1ccc(Cl)cc1-c1cc(=O)[nH]c(=S)n1CC(N)=O ?
> 100 µM

* * *

assay: Elimination half life in Wistar rat at 1 mg/kg, iv and 3 or 5 mg/kg, po; format: ADME, organism-based; settings: in vivo, read-out: beta t1/2 (converted)
Reported half-life values for a set of molecules
Write the value in min as a bare number.

| SMI | half-life / min |
| --- | --- |
| COc1ccc(-c2cc(=O)[nH]c(=S)n2CC(=O)NCCN)c(OC)c1 | 48.6 |
| COc1ccc(-c2cc(=O)[nH]c(=S)n2CCN)c(OC)c1 | 66 |
| COc1ccc(-c2cc(=O)[nH]c(=S)n2CC(N)=O)c(OC)c1 | 45.6 |

Would you mind telling me what half-life value was observed for COc1ccc(OC)c(-c2cc(=O)[nH]c(=S)n2CC(N)=O)c1 ?
22.8

Would you mind telling me what half-life value was observed for COc1ccc(-c2cc(=O)[nH]c(=S)n2CCO)c(OC)c1 ?
15

Would you mind telling me what half-life value was observed for COc1ccc(Cl)cc1-c1cc(=O)[nH]c(=S)n1CC(N)=O ?
45

* * *

test: Plasma clearance in CD-1 mouse at 1 mg/kg, iv and 3 or 5 mg/kg, po; type: ADME, organism-based
OBSERVED PROPERTY: clearance (mL/min/kg)
Write the value in mL/min/kg as a bare number.

Would you mind telling me what clearance value was observed for COc1ccc(Cl)cc1-c1cc(=O)[nH]c(=S)n1CC(N)=O [PF-06282999] ?
10.1

* * *

test: Fraction unbound in human plasma by equilibrium dialysis method; format: ADME, cell-free
OBSERVED PROPERTY: fraction unbound
Simply state the number, no unit and no words.

| SMI | fraction unbound |
| --- | --- |
| COc1ccc(-c2cc(=O)[nH]c(=S)n2CCN)c(OC)c1 | 0.7 |

Would you mind telling me what fraction unbound value was observed for COc1ccc(-c2cc(=O)[nH]c(=S)n2CC(N)=O)c(OC)c1 ?
0.5

Would you mind telling me what fraction unbound value was observed for COc1ccc(-c2cc(=O)[nH]c(=S)n2CC(=O)NCCN)c(OC)c1 ?
0.9

Would you mind telling me what fraction unbound value was observed for COc1ccc(-c2cc(=O)[nH]c(=S)n2CCO)c(OC)c1 ?
0.5

Would you mind telling me what fraction unbound value was observed for COc1ccc(OC)c(-c2cc(=O)[nH]c(=S)n2CC(N)=O)c1 ?
0.6

* * *

assay: Plasma clearance in Beagle dog at 1 mg/kg, iv and 3 or 5 mg/kg, po; format: ADME, organism-based, Canis lupus familiaris
OBSERVED PROPERTY: log10 clearance (log10 of the value in L/h/kg)
For clarity, the numbers are log10 values of clearance expressed in L/h/kg.

| MOLECULE | ASSAY RESULT |
| --- | --- |
| COc1ccc(OC)c(-c2cc(=O)[nH]c(=S)n2CC(N)=O)c1 | -0.37 |
| COc1ccc(-c2cc(=O)[nH]c(=S)n2CCO)c(OC)c1 | -0.15 |
| COc1ccc(-c2cc(=O)[nH]c(=S)n2CC(N)=O)c(OC)c1 | -1.10 |
| COc1ccc(Cl)cc1-c1cc(=O)[nH]c(=S)n1CC(N)=O [PF-06282999] | -0.69 |
| COc1ccc(-c2cc(=O)[nH]c(=S)n2CCN)c(OC)c1 | -0.09 |

Turning now to a further molecule:
Would you mind telling me what log10 clearance value was observed for COc1ccc(-c2cc(=O)[nH]c(=S)n2CC(=O)NCCN)c(OC)c1 ?
-0.61
